System: SF-295 CNS
Experiment: NCI-60 one-dose screen, 48 h (100 = growth as untreated, 0 = no growth, -100 = all killed)
Conditions: 10 µM unless noted
The panel holds about 83,000 compounds, 20% with a hit somewhere; the sample as a whole holds those more often.
MEASURED_PROPERTY: growth (%)
Number in %, nothing else.

# annotated cases, reported growth shown
| MOLECULE | growth (%) |
| --- | --- |
| CC(=O)OC[Si](C)(C)c1ccccc1 | 91.6 |
| O=C1c2ccccc2C(=O)c2c1oc1oc3c(c(=O)c21)c(=O)n(-c1ccccc1)c1ccccc31 | 18.4 |
| CCCCCCC[C@@H](O)CC(=O)N[C@H](CCCCN)C(=O)N[C@H](Cc1c[nH]c2ccccc12)C(=O)NC(CCCCN)C(=O)N[C@H](CC(C)C)C(=O)N[C@H](Cc1ccccc1)C(=O)N[C@H](CCCCN)C(=O)N[C@H](CCCCN)C(=O)N[C@H](CC(C)C)C(=O)N1CCCC1C(=O)N[C@H](CCCCN)C(=O)N[C@H](Cc1ccccc1)C(=O)N[C@H](CC(C)C)C(=O)N[C@H](Cc1c[nH]cn1)C(=O)N[C@H](CC(C)C)C(=O)N[C@H](C)C(=O)N[C@H](CCCCN)C(=O)N[C@H](CCCCN)C(=O)N[C@H](Cc1ccccc1)C(=O)O (some centres not stated) | -60.8 |
| CCOC(=O)[C@H](CSSc1ncnc2cc[nH]c12)NC(=O)[C@@H](C)c1ccc2cc(OC)ccc2c1 | 16.7 |
| CCN(C(=O)c1cc2ccccc2[nH]1)[C@H]1CCC[C@@H](NCc2ccc(OC)cc2)C1 | 99.2 |

stdin: Check the records and state growth for COc1cc(/C=C2\CCCC3=C2NC(C)=NC3c2cc(OC)c(OC)c(OC)c2)cc(OC)c1OC (configuration not stated)
stdout: -25

stdin: Check the records and state growth for Nc1c(C(=O)Nc2ccccc2)sc2nc3c(cc12)CCCCC3
stdout: -4.71

###

# maps each entry to its growth
System: U251 CNS
Test: NCI-60 one-dose screen, 48 h (100 = growth as untreated, 0 = no growth, -100 = all killed)
Settings: 10 µM unless noted
Compounds without any hit were thinned out: in the full panel of roughly 83,000, 20% have a hit.
Number in %, nothing else.

| COMPOUND | VALUE_REPORTED |
| --- | --- |
| CCN1C(=O)N(CC)C2C1NN=c1s/c(=C\c3ccccn3)c(=O)n12 (stereo unspecified) | 28.3 |
| CCCCCCC[C@@H](O)CC(=O)N[C@H](CCCCN)C(=O)N[C@H](Cc1c[nH]c2ccccc12)C(=O)NC(CCCCN)C(=O)N[C@H](CC(C)C)C(=O)N[C@H](Cc1ccccc1)C(=O)N[C@H](CCCCN)C(=O)N[C@H](CCCCN)C(=O)N[C@H](CC(C)C)C(=O)N1CCCC1C(=O)N[C@H](CCCCN)C(=O)N[C@H](Cc1ccccc1)C(=O)N[C@H](CC(C)C)C(=O)N[C@H](Cc1c[nH]cn1)C(=O)N[C@H](CC(C)C)C(=O)N[C@H](C)C(=O)N[C@H](CCCCN)C(=O)N[C@H](CCCCN)C(=O)N[C@H](Cc1ccccc1)C(=O)O (stereo partly specified) | -60.5 |
| CC(C)C(C(=O)CCN(C)C)c1ccc(Cl)cc1 (stereo unspecified) | 83.7 |
| COc1cc(OC)cc(-c2n[nH]nc2-c2ccc3c(c2)OCO3)c1 | 7.92 |
| COc1cccc(NC(=O)Cn2cc3c(=O)oc4ccccc4c3n2)c1 | 125 |

Next compound, please.
stdin: Check the records and state growth for Nc1c(C(=O)Nc2ccccc2)sc2nc3c(cc12)CN(Cc1ccccc1)CC3
stdout: 75
